System: MOLT-4 cells
Assay: MOLT-4 Cell Proliferation Assay (CellTiter-Glo)
Format: cell-based
Conditions: Homo sapiens, 72 h, read-out: MOLT-4 CTG IC50
Experimental: Cell proliferation was measured using the CellTiter-Glo® Luminescent Cell Viability Assay. The assay involved the addition of a single reagent (CellTiter-Glo® Reagent) directly to cells cultured in serum-supplemented medium. […] Each compound evaluated was prepared as a DMSO stock solution (10 mM). […] Luminescence was recorded using a Envision plate reader according to CellTiter-Glo protocol. IC50 of each compound was calculated using GraphPad Prism by nonlinear regression analysis.
Examples of molecules with documented IC50 follow.

// worked examples, IC50 included
[
  {
    "Molecule": "CCC12CC(C3=C(CN4CCN(c5ccc(C(=O)NS(=O)(=O)c6ccc(N[C@H](CCN7CCN(CCCCCNc8cccc9c8C(=O)N(C8CCC(=O)NC8=O)C9=O)CC7)CSc7ccccc7)c(S(=O)(=O)C(F)(F)F)c6)cc5)CC4)CCC(C)(C)C3)(C1)C2 (stereo partly shown) [Example 10]",
    "IC50": "50 to 150 nM"
  },
  {
    "Molecule": "CC1(C)CCC(CN2CCN(c3ccc(C(=O)NS(=O)(=O)c4ccc(N[C@H](CCN5CCN(CCCCc6ccc7c(c6)CN(C6CCC(=O)NC6=O)C7=O)CC5)CSc5ccccc5)c(S(=O)(=O)C(F)(F)F)c4)cc3)CC2)=C(C23CC(C(F)F)(C2)C3)C1 (stereo partly shown) [Example 18]",
    "IC50": "≤ 50 nM"
  }
]

// switching to the query molecule
Record Cc1ncsc1-c1ccc([C@H](C)NC(=O)[C@@H]2C[C@@H](O)CN2C(=O)[C@@H](NC(=O)CCCCCC(=O)N2CCN(CC[C@H](CSc3ccccc3)Nc3ccc(S(=O)(=O)NC(=O)c4ccc(N5CCN(CC6=C(C78CC(C(F)F)(C7)C8)CC(C)(C)CC6)CC5)cc4)cc3S(=O)(=O)C(F)(F)F)CC2)C(C)(C)C)cc1 [Example 6] . Reported IC50: 50 to 150 nM
